This collection of values is drawn from PubChem BioAssay AID1159580.

Each record here notes measured normalized growth.
- assayProtocol: chemical genetic growth profiling, strain panel (AID 1159580);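 also: tested at 20 µM; growth read once vehicle control cultures reached saturation at 30 °C; 1 = growth at the plate median or of vehicle wells; lower values mean less growth of the strain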
- runConditions: S. cerevisiae deletion strains, growth OD, locus YLR262C, strain YPT6, active compounds read low
The whole screen tested about 5,500 compounds, of which about 2,000 (36%) were called active. About 18% were inconclusive and are not listed. The list shows a part of the results. Where a SMILES comes first, the peptide text is derived from it. Side-chain parts run from the residue outwards. [ ]: non-standard residue; d: D form. The star is where a group is joined. X1 = CCC(C)C(N)C1=NC(C(=O)*)CS1; Orn = NCCC[CH](N)C(=O)O
valueType: normalized growth

# compound, valueType, recordedNumber
records = [
    ("NCC1OC(OC2C(CO)OC(OC3C(O)C(N)CC(N)C3OC3OC(CO)C(O)CC3N)C2O)C(N)C(O)C1OC1OC(CO)C(O)C(O)C1O (stereo not given)", "normalized growth", 0.916),
    ("CC(=O)NC(=O)/C(C#N)=C/N1CCN(Cc2ccccc2)CC1", "normalized growth", 0.982),
    ("CC1(C)C(=O)[C@@H]2O[C@@H]2[C@@]2(C)C1CC(=O)[C@]1(C)C2CC[C@@]2(C)[C@H](c3ccoc3)OC(=O)[C@H]3O[C@]321 (stereo not given in full)", "normalized growth", 0.912),
    ("OC(CSc1ccccc1)CN1CCN(c2ccc(C(F)(F)F)cn2)CC1 (stereo not given)", "normalized growth", 0.468),
    ("COC1(C)CCC2OC2(C)CCC2C1CC2(C)C (stereo not given)", "normalized growth", 1.07),
    ("CC(=O)c1cc2cc(Br)ccc2oc1=O", "normalized growth", 0.628),
    ("Cc1cc(C(C)(C)C)c(O)c(C)c1CC1=NCCN1", "normalized growth", 0.974),
    ("CC1=NN(c2cccc(S(N)(=O)=O)c2)C(=O)C1", "normalized growth", 0.952),
    ("CCN(CC)CCNC(=O)c1cc(Cl)c(N)cc1OC", "normalized growth", 1.05),
    ("N#C/C(=C\\N(CCS(=O)(=O)c1ccc(Cl)cc1)Cc1cccs1)S(=O)(=O)c1ccc(Cl)cc1", "normalized growth", 1.06),
    ("CC(=O)c1cc2ccccc2oc1=O", "normalized growth", 1),
    ("O=C(CCBr)N1CCN(C(=O)CCBr)CC1", "normalized growth", 1.02),
    ("CCC(C)C(N)C1=NC(C(=O)NC(CC(C)C)C(=O)NC(CCC(=O)O)C(=O)NC(C(=O)NCCCCC2NC(=O)C(CC(N)=O)NC(=O)C(CC(=O)O)NC(=O)C(Cc3cnc[nH]3)NC(=O)C(Cc3ccccc3)NC(=O)C(C(C)CC)NC(=O)C(CCCN)NC2=O)C(C)CC)CS1 (stereo not drawn) (cyclo(DNK([Ile-Glu-Leu-X1])[Orn]IFH); configuration not given here)", "normalized growth", 1.02),
    ("Cc1ccc(N=Cc2cccs2)cc1Cl", "normalized growth", 1),
    ("O=C(Nc1cccnc1)c1cccc(Cl)c1Cl", "normalized growth", 1.01),
]

* * *

- assayProtocol: chemical genetic growth profiling, strain panel (AID 1159580);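 also: tested at 20 µM; growth read once vehicle control cultures reached saturation at 30 °C; 1 = growth at the plate median or of vehicle wells; lower values mean less growth of the strain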
- runConditions: S. cerevisiae deletion strains, growth OD, locus YLR113W, strain HOG1, active compounds read low
Hit rate of the full screen: of about 5,500 compounds, about 2,000 (36%) were called active. Another 18% or so got no clear call; they are omitted. Some of the results follow. Where a SMILES comes first, the peptide text is derived from it. Bridges are numbered along the chain shown (N, C = ends). Side-chain parts run from the residue outwards. [ ]: non-standard residue; d: D form. The star is where a group is joined. Octanoyl(6-Me) = CCC(C)CCCCC(=O)*; X1 = CCC(C)C(N)C1=NC(C(=O)*)CS1; Orn = NCCC[CH](N)C(=O)O; Dab = NCC[CH](N)C(=O)O
Each record here notes measured normalized growth.
valueType: normalized growth

# compound, recordedNumber
records = [
    ("COc1ccc2c(c1)[C@]13CCCC[C@H]1[C@H](C2)N(C)CC3", 1.05),
    ("COC(=O)C[C@H]1C(C)(C)[C@@H](O)[C@@H]2CC3=C4C=C(OC)O[C@@H](c5ccoc5)[C@]4(C)CCC3[C@@]1(C)C2=O (stereo partly specified)", 0.998),
    ("Cc1cc(C(C)(C)C)c(O)c(C)c1CC1=NCCN1", 0.997),
    ("CCC1C(=O)OCC1Cc1cncn1C (stereo unspecified)", 0.972),
    ("COc1cc(OC)cc(N2C(=O)C=CC2=O)c1", 0.184),
    ("OCc1c[nH]c2ccccc12", 1),
    ("c1ccc2c(Cc3c[nH]c4ccccc34)c[nH]c2c1", 0.648),
    ("COc1cc2c(cc1OC)[C@@H]1C(=O)c3ccc4c(c3O[C@@H]1CO2)CC(C(C)C)O4 (stereo partly specified)", 1.02),
    ("C=C(C)[C@@H]1CC[C@]2(CO)CC[C@]3(C)[C@H](CCC4[C@@]5(C)CC[C@H](O)C(C)(C)C5CC[C@]43C)C12 (stereo partly specified)", 0.999),
    ("CN(C(=O)C(Cl)Cl)c1ccc(OC(=O)c2ccco2)cc1", 1.05),
    ("CCN(CC)CCNC(=O)c1cc(Cl)c(N)cc1OC", 1.06),
    ("NC(=O)NO", 0.951),
    ("CC1(C)C=Cc2cc3ccc(=O)oc3cc2O1", 0.729),
    ("O=c1c(-c2ccccc2)c(O)c2cccc3c4ccccc4n1c23", 0.185),
    ("COc1cc2c(cc1OC)[C@@]13CCN4CC5=CCOC6CC(=O)N2C1[C@H]6[C@H]5C[C@H]43 (stereo partly specified)", 0.991),
    ("COc1cc(O)cc(OC)c1OC", 1.04),
    ("CC(=O)[O][Hg][c]1ccccc1", 0.158),
    ("CN1c2ccccc2C(C)(C)C12C=Cc1cc(O)ccc1O2 (stereo unspecified)", 0.891),
    ("O1[As]2O[As]3O[As]1O[As](O2)O3", 1.05),
    ("CN1CCN(CCC=C2c3ccccc3Sc3ccc(S(=O)(=O)N(C)C)cc32)CC1", 0.983),
    ("Cc1ccc(N(CC2=NCCN2)c2cccc(O)c2)cc1", 1.04),
    ("CC(=O)N[C@@H](Cc1c[nH]c2ccccc12)C(=O)O", 1),
    ("COc1c2ccoc2cc2oc(C)cc(=O)c12", 1.1),
    ("O=C(NNC(=S)Nc1ccc(Cl)cc1)c1ncc(C(F)(F)F)cc1Cl", 0.886),
    ("O=C(O)[C@H](O)[C@@](O)(Cc1ccc(O)cc1)C(=O)O", 1),
    ("CN1CCN(CCCN2c3ccccc3Sc3ccc(C(F)(F)F)cc32)CC1", 0.941),
    ("COc1ccc(-c2oc3ccccc3c(=O)c2O)cc1OC", 0.957),
    ("NCCc1cc(O)c(O)cc1O", 1),
    ("CN1CCN(CC(=O)N2c3ccccc3C(=O)Nc3cccnc32)CC1", 0.989),
    ("O=C(O)c1cc(=O)c2cccc(O)c2[nH]1", 0.99),
    ("CCC(C)CCCCC(=O)NC(CCN)C(=O)NC(C(=O)NC(CCN)C(=O)NC1CCNC(=O)C(C(C)O)NC(=O)C(CCN)NC(=O)C(CCN)NC(=O)C(CC(C)C)NC(=O)C(Cc2ccccc2)NC(=O)C(CCN)NC1=O)C(C)O (stereo unspecified) ({Octanoyl(6-Me)}-[Dab]T[Dab][Dab][Dab]FL[Dab][Dab]T; lactam 4-C; configuration not given here)", 0.986),
    ("COc1ccc2c(c1OC)OC[C@@H](c1ccc(OC)c(OC)c1OC)C2", 0.939),
    ("CCc1cccc2c3c([nH]c12)C(CC)(CC(=O)O)OCC3 (stereo unspecified)", 0.938),
    ("O=C(CCc1ccc(O)cc1)c1c(O)cc(O)cc1O[C@@H]1O[C@H](CO)[C@@H](O)[C@H](O)[C@H]1O", 0.956),
    ("NC(N)=NC(N)=Nc1ccccc1", 0.988),
    ("COC1(C)CCC2OC2(C)CCC2C1CC2(C)C (stereo unspecified)", 1.03),
    ("CCC(C)C(N)C1=NC(C(=O)NC(CC(C)C)C(=O)NC(CCC(=O)O)C(=O)NC(C(=O)NCCCCC2NC(=O)C(CC(N)=O)NC(=O)C(CC(=O)O)NC(=O)C(Cc3cnc[nH]3)NC(=O)C(Cc3ccccc3)NC(=O)C(C(C)CC)NC(=O)C(CCCN)NC2=O)C(C)CC)CS1 (stereo not drawn) (cyclo(DNK([Ile-Glu-Leu-X1])[Orn]IFH); configuration not given here)", 1.05),
    ("Cc1onc(-c2ccccc2Cl)c1C(=O)N[C@@H]1C(=O)N2[C@@H]1SC(C)(C)[C@@H]2C(=O)O", 1.05),
    ("COc1cc(N2C(=O)C=CC2=O)cc(OC)c1OC", 0.156),
    ("S=C(Nc1ccc(Cl)cc1)Nc1ccc(Cl)cc1", 0.717),
    ("CC(=O)CC1CCCCN1 (stereo unspecified)", 0.981),
]
